measurementTarget: Hypoxia-inducible factor 1-alpha (Homo sapiens, UniProt Q16665)
Sequence (Q16665 whole entry, the tested form may be a part): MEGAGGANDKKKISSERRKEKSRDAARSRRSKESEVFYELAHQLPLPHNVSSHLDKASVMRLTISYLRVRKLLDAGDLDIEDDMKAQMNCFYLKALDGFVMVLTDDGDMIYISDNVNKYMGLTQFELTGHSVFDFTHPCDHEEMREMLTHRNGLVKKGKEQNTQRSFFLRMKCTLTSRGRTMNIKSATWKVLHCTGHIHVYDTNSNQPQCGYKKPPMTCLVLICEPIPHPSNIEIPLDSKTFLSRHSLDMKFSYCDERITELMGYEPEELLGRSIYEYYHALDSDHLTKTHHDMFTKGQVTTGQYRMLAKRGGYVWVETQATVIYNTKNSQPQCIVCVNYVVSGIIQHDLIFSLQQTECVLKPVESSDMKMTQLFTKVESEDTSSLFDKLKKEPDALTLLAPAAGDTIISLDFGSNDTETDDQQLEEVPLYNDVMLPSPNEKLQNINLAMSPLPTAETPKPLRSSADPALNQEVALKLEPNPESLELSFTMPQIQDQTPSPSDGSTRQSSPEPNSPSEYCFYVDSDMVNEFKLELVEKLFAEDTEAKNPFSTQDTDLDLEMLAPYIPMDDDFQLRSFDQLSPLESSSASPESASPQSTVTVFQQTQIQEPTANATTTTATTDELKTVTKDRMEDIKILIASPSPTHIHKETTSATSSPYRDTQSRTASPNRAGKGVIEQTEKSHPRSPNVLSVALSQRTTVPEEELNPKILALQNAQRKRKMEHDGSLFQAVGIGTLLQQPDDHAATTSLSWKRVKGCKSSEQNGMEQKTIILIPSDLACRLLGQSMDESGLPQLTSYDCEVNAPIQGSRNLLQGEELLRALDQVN
procedureText: Displacement of GST-tagged p300-CH1 domain (323 to 423 residues) from synthetic biotinylated HIF-1alpha C-TAD domain (786 to 826 residues) (unknown origin) measured after overnight incubation by fluorescence analysis
Recorded pIC50 values for a group of molecules are listed next.
Please note pIC50 is a logarithmic value: minus log10 of concentration in mol/L. Answer with that number alone.

{"columns": ["molecule", "measurementTarget", "pIC50"],
 "data": [
  ["O=C1C(NC2Cc3cc(Br)c(O)cc3S2)=CC2=NCCc3c[nH]c1c32 (centres undefined)", "Hypoxia-inducible factor 1-alpha (Homo sapiens, UniProt Q16665)", 5.08],
  ["CN1C(=O)[C@@]2(CO)SS[C@@]1(Cc1cn([C@]34C[C@@]56SS[C@](CO)(C(=O)N5[C@H]3Nc3ccccc34)N(C)C6=O)c3ccccc13)C(=O)N2C", "Hypoxia-inducible factor 1-alpha (Homo sapiens, UniProt Q16665)", 5.72],
  ["O=C1C=C2S[C@H]3C[C@]2(C=C1Br)C1=C(N3)C(=O)c2[nH]cc3c2C1=NCC3 [(+)-DISCORHABDIN B]", "Hypoxia-inducible factor 1-alpha (Homo sapiens, UniProt Q16665)", 5.43]
]}

Request: Need pIC50, item "O=C1C2=C3C4=[N+](CCc5c[nH]c1c54)[C@@H]1C(=O)C=C4S[C@@H](C[C@@]43[C@H]1O)N2"
Result: 6.14
